EXPERIMENTAL_SYSTEM: pseudo-kinase domain (JH2, amino-acids 536-812 with 3 surface mutations W659A, W777A, F794H) of human Wild Type JAK2 (Homo sapiens, UniProt O60674, F794H/W659A/W777A)
Construct: pseudo-kinase domain (JH2, amino-acids 536-812 with 3 surface mutations W659A, W777A, F794H); His (C); Avi (biotinylated) (C)
Sequence (O60674 536-812 W659A/W777A/F794H): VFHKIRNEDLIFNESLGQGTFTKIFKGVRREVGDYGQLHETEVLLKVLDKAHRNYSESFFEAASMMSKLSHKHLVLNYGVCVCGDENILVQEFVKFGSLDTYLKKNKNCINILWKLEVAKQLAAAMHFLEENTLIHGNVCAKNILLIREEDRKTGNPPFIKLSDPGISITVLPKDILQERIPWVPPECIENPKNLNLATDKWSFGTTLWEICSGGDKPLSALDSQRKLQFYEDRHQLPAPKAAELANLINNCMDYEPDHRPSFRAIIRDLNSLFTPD
METHOD: JAK2 LanthaScreen JH2-WT binding assay
EXPERIMENTAL_CONDITIONS: 50 nM tracer, 1 hour at 25° C., read-out: JH2 BIND WT IC50
pIC50: −log10 of the molar value.
ENDPOINT: pIC50

>>> experimental_result("COCc1ccc(-c2c(-c3cnn(C)c3)[nH]c3ncc4c(c23)N([C@@H]2CC[C@@H](NC(=O)OC)C2)C(=O)NC4)cc1")
"7.00 to 8.00"
>>> experimental_result("CC(C)n1ncc2cc(-c3c(-c4cnn(C)c4)[nH]c4ncc5c(c34)N([C@@H]3CC[C@@H](NS(C)(=O)=O)C3)C(=O)NC5)ccc21")
"7.00 to 8.00"
>>> experimental_result("COC(=O)N[C@@H]1CC[C@@H](n2c(=O)nc(OC)c3cnc4[nH]c(-c5cnn(C)c5)c(-c5ccc6c(cnn6C(C)C)c5)c4c32)C1")
"7.00 to 8.00"
>>> experimental_result("CC(C)n1ncc2cc(-c3c(-c4cnn(C)c4)[nH]c4ncc5c(c34)N(C3CCN(C(=O)NCC(F)F)CC3)C(=O)NC5)ccc21")
"7.00 to 8.00"

Q: Look up pIC50: COC(=O)N[C@@H]1CC[C@@H](N2C(=O)NCc3cnc4[nH]c(-c5cnn(C)c5)c(-c5ccc(OC6CCOC6)cc5)c4c32)C1 (mixture of isomers)
Result: 7.00 to 8.00

Q: And for COC(=O)N[C@@H]1CC[C@@H](N2C(=O)NCc3cnc4[nH]c(-c5cnn(C)c5)c(-c5ccc6c(cnn6C)c5)c4c32)C1 ?
Result: ≥ 8.00

* * *

EXPERIMENTAL_SYSTEM: pseudo-kinase domain (JH2, amino-acids 536-812 with 3 surface mutations W659A, W777A, F794H) of human V617F mutant JAK2 (Homo sapiens, UniProt O60674, F794H/V617F/W659A/W777A)
Construct: pseudo-kinase domain (JH2, amino-acids 536-812 with 3 surface mutations W659A, W777A, F794H); His (C); Avi (biotinylated) (C)
Sequence (O60674 536-812 V617F/W659A/W777A/F794H): as the sequence (O60674 536-812 W659A/W777A/F794H) above, with V82F counted along it
METHOD: JAK2 LanthaScreen JH2-V617F binding assay
EXPERIMENTAL_CONDITIONS: 50 nM tracer, 1 hour at 25° C., read-out: JH2 BIND V617F IC50
Method: Example C. JAK2 LanthaScreen JH2-V617F Binding Assay JAK2 JH2-V617F binding assay utilizes pseudo-kinase domain (JH2, amino-acids 536-812 with 3 surface mutations W659A, W777A, F794H) of human V617F mutant JAK2 expressed as C-terminal His-Avi-tagged, biotinylated protein in a baculovirus expression system (BPS Bioscience, Catalog #79498). […] After incubation for 1 hour at 25° C., LanthaScreen signals were read on a PHERAstar FS plate reader (BMG LABTECH). […]
Catalogue of IC50 readings, one per entry.

Worked cases, IC50 given:
>>> experimental_result("COC(=O)N[C@]1(C)CC[C@H](N2C(=O)NCc3cnc4[nH]c(-c5cnn(C)c5)c(-c5ccc6c(cnn6C(C)C)c5)c4c32)CC1")
"10 to 100 nM"
>>> experimental_result("CC(=O)N[C@@H]1CC[C@@H](N2C(=O)NCc3cnc4[nH]c(-c5cnn(C)c5)c(-c5ccc6c(cnn6C(C)C)c5)c4c32)C1")
"10 to 100 nM"
>>> experimental_result("CC(C)n1ncc2cc(-c3c(-c4cnn(C)c4)[nH]c4ncc5c(c34)N(C3CCN(C(=O)NCC(F)F)CC3)C(=O)NC5)ccc21")
"10 to 100 nM"
>>> experimental_result("COC(=O)N[C@@H]1CC[C@@H](N2C(=O)NCc3cnc4[nH]c(-c5cnn(C)c5)c(-c5ccc6c(cnn6C6CCC6)c5)c4c32)C1")
"10 to 100 nM"
>>> experimental_result("CC(C)n1ncc2cc(-c3c(-c4cnn(C)c4)[nH]c4ncc5c(c34)N([C@H]3CC[C@@H]3NS(C)(=O)=O)C(=O)NC5)ccc21 (racemic)")
"10 to 100 nM"

Q: Can you share its IC50? I mean this compound: CC(C)n1ncc2cc(-c3c(-c4cnn(C)c4)[nH]c4ncc5c(c34)N([C@@H]3CC[C@@H](NS(C)(=O)=O)C3)C(=O)NC5)ccc21
Result: 100 to 500 nM

* * *

IC50 overview
EXPERIMENTAL_SYSTEM: pseudo-kinase domain (JH2, amino-acids 536-812 with 3 surface mutations W659A, W777A, F794H) of human Wild Type JAK2 (Homo sapiens, UniProt O60674, F794H/W659A/W777A)
Construct: pseudo-kinase domain (JH2, amino-acids 536-812 with 3 surface mutations W659A, W777A, F794H); His (C); Avi (biotinylated) (C)
METHOD: JAK2 LanthaScreen JH2-WT binding assay
EXPERIMENTAL_CONDITIONS: 50 nM tracer, 1 hour at 25° C., read-out: JH2 BIND WT IC50

In the examples that follow, each entry is paired with its recorded IC50.
>>> experimental_result("COC(=O)N[C@@H]1CC[C@@H](n2c(=O)nc(N)c3cnc4[nH]c(-c5cnn(C)c5)c(-c5ccc6c(cnn6C(C)C)c5)c4c32)C1")
"≤ 10 nM"
>>> experimental_result("COC(=O)N[C@H]1C[C@H](N2C(=O)NCc3cnc4[nH]c(C5=CCN(C)CC5)c(-c5ccc6c(cnn6C(C)C)c5)c4c32)C1")
"10 to 100 nM"
>>> experimental_result("CC(=O)N1CCC(N2C(=O)NCc3cnc4[nH]c(-c5cnn(C)c5)c(-c5ccc6c(cnn6C(C)C)c5)c4c32)CC1")
"10 to 100 nM"
>>> experimental_result("CC(C)n1ncc2cc(-c3c(-c4cnn(C)c4)[nH]c4ncc5c(c34)N(C3CCC4(CC3)CN(C(=O)NCC(F)F)C4)C(=O)NC5)ccc21")
"10 to 100 nM"
>>> experimental_result("CC(C)n1ncc2cc(-c3c(-c4cnn(C)c4)[nH]c4ncc5c(c34)N(C3CCN(S(C)(=O)=O)CC3)C(=O)NC5)ccc21")
"10 to 100 nM"
>>> experimental_result("COC(=O)N[C@H]1C[C@H](N2C(=O)NC(C)c3cnc4[nH]c(-c5cnn(C)c5)c(-c5ccc6c(cnn6C(C)C)c5)c4c32)C1 (mixture of isomers)")
"10 to 100 nM"
>>> experimental_result("COC(=O)N[C@@H]1CC[C@@H](N2C(=O)NCc3cnc4[nH]c(-c5cnn(C)c5)c(-c5cccc(F)c5)c4c32)C1")
"10 to 100 nM"
>>> experimental_result("COC(=O)N[C@H]1C[C@H](N2C(=O)NCc3cnc4[nH]c(C5CC5)c(-c5ccc6c(cnn6C(C)C)c5)c4c32)C1")
"10 to 100 nM"

Query compound follows.
Q: Using the record for CC(C)n1ncc2cc(-c3c(-c4cnn(C)c4)[nH]c4ncc5c(c34)N([C@H]3C[C@@H](NC(=O)Cc4ccn(C)n4)C3)C(=O)NC5)ccc21 , report its IC50.
Result: 10 to 100 nM

* * *

EXPERIMENTAL_SYSTEM: catalytic domain (JH1, amino acids 826-1132) of human JAK2 (Homo sapiens)
Construct: catalytic domain (JH1, amino acids 826-1132) of human JAK2; FLAG (N)
Sequence (O60674 826-1132): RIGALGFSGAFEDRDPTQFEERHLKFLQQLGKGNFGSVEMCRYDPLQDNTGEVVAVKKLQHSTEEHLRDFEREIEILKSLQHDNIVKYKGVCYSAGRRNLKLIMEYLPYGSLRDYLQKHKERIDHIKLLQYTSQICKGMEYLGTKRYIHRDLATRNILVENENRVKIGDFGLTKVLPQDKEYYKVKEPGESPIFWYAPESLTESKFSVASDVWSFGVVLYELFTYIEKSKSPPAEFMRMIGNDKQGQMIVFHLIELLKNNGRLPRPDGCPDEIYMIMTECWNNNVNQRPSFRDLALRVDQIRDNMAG
METHOD: JAK2 LanthaScreen JH1 binding assay
EXPERIMENTAL_CONDITIONS: 50 nM tracer, 2 hours at 25° C., read-out: JH1 BIND IC50
Recorded measurements of IC50, one per entry

A selection of reference data follows.
>>> experimental_result("COC(=O)N[C@@H]1CC[C@@H](N2C(=O)NCc3cnc4[nH]c(-c5cnn(C)c5)c(-c5ccc(OC6CCOC6)cc5)c4c32)C1 (mixture of isomers) [Example 27]")
"100 to 500 nM"
>>> experimental_result("CC(C)n1ncc2cc(-c3c(-c4cnn(C)c4)[nH]c4ncc5c(c34)N([C@H]3C[C@H](NS(C)(=O)=O)C3)C(=O)NC5)ccc21 [Example 3]")
"10 to 100 nM"
>>> experimental_result("COC(=O)N[C@@H]1CC[C@@H](n2c(=O)nc(N(C)C)c3cnc4[nH]c(-c5cnn(C)c5)c(-c5ccc6c(cnn6C(C)C)c5)c4c32)C1 [Example 43]")
"> 1000 nM"
>>> experimental_result("CC(C)n1ncc2cc(-c3c(-c4cnn(C)c4)[nH]c4ncc5c(c34)N([C@@H]3CC[C@@H](NC(=O)C4CC4)C3)C(=O)NC5)ccc21 [Example 11]")
"> 1000 nM"
>>> experimental_result("COC(=O)N[C@H]1C[C@H](N2C(=O)NCc3cnc4[nH]c(-c5ccc(CN6CCOCC6)cc5)c(-c5ccc6c(cnn6C(C)C)c5)c4c32)C1 [Example 33]")
"> 1000 nM"
>>> experimental_result("CC(C)n1ncc2cc(-c3c(-c4cnn(C)c4)[nH]c4ncc5c(c34)N([C@@H]3CC[C@@H](NS(C)(=O)=O)C3)C(=O)NC5)ccc21 [Example 10]")
"> 1000 nM"
>>> experimental_result("COC(=O)N[C@@H]1CC[C@@H](N2C(=O)NCc3cnc4[nH]c(-c5cnn(C)c5)c(-c5ccc6c(cnn6C6CCC6)c5)c4c32)C1 [Example 24]")
"100 to 500 nM"
>>> experimental_result("CC(=O)N1CCC(N2C(=O)NCc3cnc4[nH]c(-c5cnn(C)c5)c(-c5ccc6c(cnn6C(C)C)c5)c4c32)CC1 [Example 15]")
"> 1000 nM"
>>> experimental_result("COCc1ccc(-c2c(-c3cnn(C)c3)[nH]c3ncc4c(c23)N([C@@H]2CC[C@@H](NC(=O)OC)C2)C(=O)NC4)cc1 [Example 32]")
"500 to 1000 nM"
>>> experimental_result("COC(=O)N[C@H]1C[C@H](N2C(=O)NCc3cnc4[nH]c(-c5cc(C)nc(C)c5)c(-c5ccc6c(cnn6C(C)C)c5)c4c32)C1 [Example 35]")
"> 1000 nM"

Q: Recorded IC50 for COC(=O)N[C@H]1C[C@@H](N2C(=O)NCc3cnc4[nH]c(-c5cnn(C)c5)c(-c5ccc6c(cnn6C(C)C)c5)c4c32)C1 [Example 4] , please?
Result: > 1000 nM

Q: Now the same for COC(=O)N[C@@H]1CC[C@@H](N2C(=O)NCc3cnc4[nH]c(-c5cnn(C)c5)c(-c5ccc6c(cnn6CC6CC6)c5)c4c32)C1 [Example 23]
Result: 100 to 500 nM

Q: Another compound to check: COC(=O)N1CCC(N2C(=O)NCc3cnc4[nH]c(-c5cnn(C)c5)c(-c5ccc6c(cnn6C(C)C)c5)c4c32)CC1 [Example 14]
Result: > 1000 nM
